test target: CCR2 (Homo sapiens)
test protocol: MCP-1 Receptor Binding Assay in THP-1 Cells
condition notes: read-out: MCP1B_v3 IC50
pIC50: −log10 of the molar value.
observed property: pIC50

- COC1COCCC1N[C@@H]1C[C@H]2CN(Cc3ccccc3)C[C@@]2(C(=O)N2CCc3ncc(C(F)(F)F)cc3C2)C1 (relative stereo) [Example 101]: 6.43
- COC1COCCC1N[C@@H]1C[C@H]2CN(C(=O)NCc3ccccc3)C[C@@]2(C(=O)N2CCc3ncc(C(F)(F)F)cc3C2)C1 (relative stereo) [Example 17]: 7.22
- CCN(CC)CCOC(=O)N1C[C@@H]2C[C@@H](NC3CCOCC3OC)C[C@]2(C(=O)N2CCc3ccc(C(F)(F)F)cc3C2)C1 (relative stereo) [Example 41]: 8.00
- COC1COCCC1N[C@@H]1C[C@H]2CN(C(=O)CCCN(C)C)C[C@@]2(C(=O)N2CCc3ncc(C(F)(F)F)cc3C2)C1 (relative stereo) [Example 78]: 6.64
- COC1COCCC1N[C@@H]1C[C@H]2CN(CCCc3ccccc3)C[C@@]2(C(=O)N2CCc3ncc(C(F)(F)F)cc3C2)C1 (relative stereo) [Example 103]: 6.00

P = CO[C@@H]1COCC[C@@H]1N[C@@H]1C[C@H]2CN(C(N)=O)C[C@@]2(C(=O)N2CCc3ncc(C(F)(F)F)cc3C2)C1 [Example 3]
Q = COC1COCCC1N[C@@H]1C[C@H]2CN(C(=O)OCCN3CCCC3)C[C@@]2(C(=O)N2CCc3ncc(C(F)(F)F)cc3C2)C1 (relative stereo) [Example 45]
Looking at recorded values for pIC50, does P or Q come in lower? Write down the label attached to your selection.
Q

A = COC1COCCC1N[C@@H]1C[C@H]2CN(/C(N)=N\C#N)C[C@@]2(C(=O)N2CCc3ncc(C(F)(F)F)cc3C2)C1 (relative stereo) [Example 115]
B = COCCOC(=O)N1C[C@@H]2C[C@@H](NC3CCOCC3OC)C[C@]2(C(=O)N2CCc3ncc(C(F)(F)F)cc3C2)C1 (relative stereo) [Example 48]
// compare measured pIC50, left A , right B , return larger Write down the label attached to your selection.
A
(A: 7.40, B: 7.10)

1 = COC1COCCC1N[C@@H]1C[C@H]2CN(C3CC3)C[C@@]2(C(=O)N2CCc3ncc(C(F)(F)F)cc3C2)C1 (relative stereo) [Example 94]
2 = CO[C@@H]1COCC[C@@H]1N[C@@H]1C[C@H]2CN(C(=O)OCCC3CCOCC3)C[C@@]2(C(=O)N2CCc3ncc(C(F)(F)F)cc3C2)C1 [Example 43]
Looking at recorded values for pIC50, does 1 or 2 come in lower? Write down the label attached to your selection.
1
(1: 6.74, 2: 7.52)

---

test target: CCR2 (Homo sapiens)
test protocol: MCP-1 Receptor Binding Assay in THP-1 Cells
condition notes: read-out: MCP1B_v3 IC50
pIC50: −log10 of the molar value.
observed property: pIC50

• COC1COCCC1N[C@@H]1C[C@H]2CN(C(=O)OCC(C)C)C[C@@]2(C(=O)N2CCc3ncc(C(F)(F)F)cc3C2)C1 (relative stereo) = 7.40

A = COC1COCCC1N[C@@H]1C[C@H]2CN(c3nc(C)no3)C[C@@]2(C(=O)N2CCc3ncc(C(F)(F)F)cc3C2)C1 (relative stereo)
B = COC1COCCC1N[C@@H]1C[C@H]2C(=O)NC[C@@]2(C(=O)N2CCc3ncc(C(F)(F)F)cc3C2)C1 (relative stereo)
C = CNC(=S)N(C1CCOCC1OC)[C@@H]1C[C@H]2CN(C(=O)OCc3ccccc3)C[C@@]2(C(=O)N2CCc3ncc(C(F)(F)F)cc3C2)C1 (relative stereo)
D = COC1COCCC1N[C@@H]1C[C@H]2CN(C(=O)c3ncco3)C[C@@]2(C(=O)N2CCc3ncc(C(F)(F)F)cc3C2)C1 (relative stereo)
Descending sort on pIC50 required. Output the labels ranked as instructed.
D, A, C, B

a = COc1ccc(COC(=O)N2C[C@@H]3C[C@@H](NC4CCOCC4OC)C[C@]3(C(=O)N3CCc4ncc(C(F)(F)F)cc4C3)C2)cc1 (relative stereo)
b = COC1COCCC1N[C@@H]1C[C@H]2CN(S(C)(=O)=O)C[C@@]2(C(=O)N2CCc3ncc(C(F)(F)F)cc3C2)C1 (relative stereo)
Looking at recorded values for pIC50, does a or b come in lower? Write down the label attached to your selection.
b

I = COC1COCCC1N[C@@H]1C[C@H]2CN(C(N)=O)C[C@@]2(C(=O)NCc2cc(F)cc(C(F)(F)F)c2)C1 (relative stereo)
II = COC1COCCC1N[C@@H]1C[C@H]2CN(C(=O)CNC(C)=O)C[C@@]2(C(=O)N2CCc3ncc(C(F)(F)F)cc3C2)C1 (relative stereo)
Looking at recorded values for pIC50, does I or II come in lower? Write down the label attached to your selection.
I
(I: 6.49, II: 6.77)

I = COC1COCCC1N[C@@H]1C[C@H]2CN(C(=O)CNC(=O)OC(C)(C)C)C[C@@]2(C(=O)N2CCc3ncc(C(F)(F)F)cc3C2)C1 (relative stereo)
II = COC1COCCC1N[C@@H]1C[C@H]2CN(C(=O)OCc3ccc(C#N)cc3)C[C@@]2(C(=O)N2CCc3ncc(C(F)(F)F)cc3C2)C1 (relative stereo)
// compare measured pIC50, left I , right II , return larger Write down the label attached to your selection.
II
(II: 6.70, I: 6.44)

---

test target: CCR2 (Homo sapiens, UniProt P41597)
Sequence (P41597 whole entry): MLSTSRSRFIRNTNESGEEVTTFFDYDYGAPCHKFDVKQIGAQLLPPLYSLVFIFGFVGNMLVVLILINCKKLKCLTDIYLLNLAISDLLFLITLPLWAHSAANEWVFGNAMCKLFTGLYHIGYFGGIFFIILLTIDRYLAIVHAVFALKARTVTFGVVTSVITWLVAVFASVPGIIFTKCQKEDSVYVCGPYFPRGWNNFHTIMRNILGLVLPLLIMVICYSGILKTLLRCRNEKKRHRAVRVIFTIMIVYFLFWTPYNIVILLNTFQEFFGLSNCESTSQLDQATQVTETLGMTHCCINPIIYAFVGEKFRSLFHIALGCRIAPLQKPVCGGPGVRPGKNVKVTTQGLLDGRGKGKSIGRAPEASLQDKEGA
test protocol: MCP-1 Receptor Binding Assay in THP-1 Cells
condition notes: read-out: MCP1B_v3 IC50
pIC50: −log10 of the molar value.
observed property: pIC50

- CNC(=O)N1C[C@@H]2C[C@@H](NC3CCOCC3OC)C[C@]2(C(=O)N2CCc3ncc(C(F)(F)F)cc3C2)C1 (relative stereo) [Example 13]: 7.10

I = COC1COCCC1N[C@@H]1C[C@H]2CN(C(=O)CCN3CCOCC3)C[C@@]2(C(=O)N2CCc3ncc(C(F)(F)F)cc3C2)C1 (relative stereo) [Example 80]
II = CNC(=S)N1C[C@@H]2C[C@@H](NC3CCOCC3OC)C[C@]2(C(=O)N2CCc3ncc(C(F)(F)F)cc3C2)C1 (relative stereo) [Example 27]
Looking at recorded values for pIC50, does I or II come in lower? Write down the label attached to your selection.
I
